Recorded values, source ChEMBL document CHEMBL4428136.

Target Under Test: L-lactate dehydrogenase B chain (Homo sapiens)
Sequence (P07195 whole entry): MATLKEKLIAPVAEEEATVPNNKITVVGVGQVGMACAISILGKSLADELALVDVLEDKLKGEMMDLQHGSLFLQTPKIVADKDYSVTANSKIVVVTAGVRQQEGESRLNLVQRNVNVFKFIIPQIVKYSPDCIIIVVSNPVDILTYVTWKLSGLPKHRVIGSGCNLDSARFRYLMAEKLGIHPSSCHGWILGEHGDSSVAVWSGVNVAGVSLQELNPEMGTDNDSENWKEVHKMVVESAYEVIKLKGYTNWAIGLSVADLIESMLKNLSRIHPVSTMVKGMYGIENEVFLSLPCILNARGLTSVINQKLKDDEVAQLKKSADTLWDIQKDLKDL
Assay Method Text: Inhibition of human recombinant carboxy-terminal His-tagged LDHB by UV endpoint assay
pIC50: −log10 of the molar value.
Rule: Yes for pIC50 not less than 6, No for anything less.

Query: hey, is pIC50 for this one >= 6? O=C1NC(c2ccsc2)(c2ccccc2F)CC(O)=C1Sc1ccccc1Cl (stereo unspecified)
Response: No

Query: Also COc1ccc(C2(c3ccsc3)CC(O)=C(Sc3ccccc3Cl)C(=O)N2)cc1 (stereo unspecified) , if possible.
Response: Yes

Query: Also O=C1NC(c2ccccc2)(c2cscn2)CC(O)=C1Sc1ccccc1Cl (stereo unspecified) , if possible.
Response: No

Query: Also O=C1NC(c2ccsc2)(c2ccccn2)CC(O)=C1Sc1ccccc1Cl (stereo unspecified) , if possible.
Response: No

Query: Also O=C1NC(c2ccccc2)(c2ccccc2)CC(O)=C1Sc1ccccc1Cl , if possible.
Response: No

* * *

Assay Method Text: Volume of distribution at steady state in CD-1 mouse at 1 mg/kg, iv administered as bolus by LC-MS/MS analysis
Format: ADME, organism-based
Recorded Conditions: in vivo, read-out: Vdss
Assay Metric: Vd

Query: Requested read-out: Vd. Entry: O=C1N[C@](c2ccc(N3CCOCC3)cc2)(c2ccsc2)CC(O)=C1Sc1ccccc1Cl
Response: 1.4 L/kg

* * *

Assay Method Text: Cmax in CD-1 mouse at 5 mg/kg, po administered as suspension by LC-MS/MS analysis
Type: ADME, organism-based
Set-up: dose 5 mg/kg, route oral
Recorded Conditions: in vivo
Assay Metric: Cmax (nM)
Report only the number, with the unit nM understood.

Query: Requested read-out: Cmax. Entry: O=C1N[C@](c2ccc(N3CCOCC3)cc2)(c2ccsc2)CC(O)=C1Sc1ccccc1Cl
Response: 1700

* * *

Assay Method Text: Apparent permeability across apical to basolateral side in MDCK cells
Format: ADME, cell-based, Canis lupus familiaris
Recorded Conditions: dog
Assay Metric: Papp A→B (×10⁻⁶ cm/s)
Report only the number, with the unit ×10⁻⁶ cm/s understood.

Query: Requested read-out: Papp A→B. Entry: O=C1NC(c2ccc(N3CCCCC3)cc2)(c2ccsc2)CC(O)=C1Sc1ccccc1Cl (racemic)
Response: 1.7

Query: Also O=C1NC(c2ccsc2)(c2cccc(NC3CCOCC3)c2)CC(O)=C1Sc1ccccc1Cl (racemic) , if possible.
Response: 0.5

Query: Also O=C1NC(c2ccccc2)(c2ccccc2)CC(O)=C1Sc1ccccc1Cl , if possible.
Response: 9.4

Query: Also CC1CN(c2ccc(C3(c4ccsc4)CC(O)=C(Sc4ccccc4Cl)C(=O)N3)cc2)CC(C)O1 (configuration not stated) , if possible.
Response: 6

Query: Also O=C1N[C@](c2ccc(N3CCOCC3)cc2)(c2ccsc2)CC(O)=C1Sc1ccccc1Cl , if possible.
Response: 3.4

Query: Also O=C1NC(c2ccccc2)(c2ccsc2)CC(O)=C1Sc1ccccc1Cl (configuration not stated) , if possible.
Response: 7.4

Query: Also O=C1NC(c2ccsc2)(c2cccc(Nc3ccc(F)cc3)c2)CC(O)=C1Sc1ccccc1Cl (racemic) , if possible.
Response: 1

* * *

Assay Method Text: AUC in CD-1 mouse at 100 mg/kg, po administered as suspension by LC-MS/MS analysis
Format: ADME, organism-based
Recorded Conditions: in vivo
Assay Metric: AUC
Units required after the number.

Query: Requested read-out: AUC. Entry: O=C1N[C@](c2ccc(N3CCOCC3)cc2)(c2ccsc2)CC(O)=C1Sc1ccccc1Cl
Response: 250 µM·h
